# Study system: acetylcholine muscarinic M1 receptor (Homo sapiens)
# Construct: expressed in transfected cells; host or cells: CHOnfat (CHO cells with an NFAT reporter background) expressing hM1, kept under Geneticin selection
# Sequence (P11229 whole entry): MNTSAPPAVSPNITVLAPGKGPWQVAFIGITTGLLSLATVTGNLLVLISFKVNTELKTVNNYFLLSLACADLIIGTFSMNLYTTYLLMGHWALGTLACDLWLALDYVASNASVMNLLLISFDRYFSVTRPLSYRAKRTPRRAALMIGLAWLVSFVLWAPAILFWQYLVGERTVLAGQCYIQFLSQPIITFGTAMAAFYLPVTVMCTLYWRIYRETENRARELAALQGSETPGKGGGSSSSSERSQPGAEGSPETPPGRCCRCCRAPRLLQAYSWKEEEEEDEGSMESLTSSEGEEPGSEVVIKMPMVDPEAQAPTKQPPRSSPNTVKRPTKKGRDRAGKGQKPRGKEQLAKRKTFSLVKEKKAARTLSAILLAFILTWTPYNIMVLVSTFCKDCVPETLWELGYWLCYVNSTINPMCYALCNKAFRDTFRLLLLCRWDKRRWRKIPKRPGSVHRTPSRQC
# Protocol notes: muscarinic FLIPR assay: potentiation of acetylcholine (EC20)-stimulated intracellular Ca2+ in CHOnfat/hM1 cells
# Type: cell-based
# Condition description: CHOnfat/hM1 cells, FLIPR, 4 min preincubation, then EC20 acetylcholine (3 nM final); read-out: IP Value (inflection point)
Value type: EC50 (nM)
Give the value in nM but do not write nM after it.

// lookup EC50 for O=C(O)c1cn(Cc2ccc3[nH]cnc3c2)c2cccc(F)c2c1=O 229

// lookup EC50 for O=C(O)c1cn(Cc2cccc3ccncc23)c2cccc(F)c2c1=O 1300

// lookup EC50 for O=C(O)c1cn(Cc2ccc3nccnc3c2)c2cccc(F)c2c1=O 501

// lookup EC50 for O=C(O)c1cn(Cc2ccc3cc(F)ccc3c2)c2cccc(F)c2c1=O 261

// lookup EC50 for O=C(O)c1cn(Cc2cc3ccccc3s2)c2cccc(F)c2c1=O 147
